- tested_on: human serotonin 5-HT7 receptor subtype (Homo sapiens, UniProt P34969)
- Construct: expressed in transfected cells
- Sequence (P34969 whole entry): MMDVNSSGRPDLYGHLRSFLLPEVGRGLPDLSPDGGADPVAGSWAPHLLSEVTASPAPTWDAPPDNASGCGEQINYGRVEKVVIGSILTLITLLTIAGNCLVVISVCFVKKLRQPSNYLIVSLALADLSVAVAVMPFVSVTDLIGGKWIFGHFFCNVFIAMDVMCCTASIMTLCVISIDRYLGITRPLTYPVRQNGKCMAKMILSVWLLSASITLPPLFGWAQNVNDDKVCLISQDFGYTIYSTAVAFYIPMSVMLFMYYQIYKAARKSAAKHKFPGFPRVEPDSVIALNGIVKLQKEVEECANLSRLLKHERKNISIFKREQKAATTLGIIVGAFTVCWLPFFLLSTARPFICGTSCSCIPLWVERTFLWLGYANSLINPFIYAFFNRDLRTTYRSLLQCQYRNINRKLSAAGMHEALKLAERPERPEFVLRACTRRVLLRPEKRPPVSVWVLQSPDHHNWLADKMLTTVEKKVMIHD
- measurement_protocol: Binding affinity for 5-HT7 receptor ([3H]-5CT binding test)
- condition_summary: ratio of Ki of 5-HT2 to Ki of 5-HT7 (selectivity)
# note: exactly 90 is not below, so it is 0; use 1 for 5-HT2/5-HT7 strictly under it

{"compound": "O=C1Nc2cccc3c2C1(CCCCN1CCN2c4ccccc4OCC2C1)CCC3 (stereo not drawn) [Compd. of Syn. Ex. 1b]", "answer_label": 1}
{"compound": "O=C1Nc2cccc3c2C1(CCCCN1CCc2sccc2C1)CCC3 (stereo not drawn) [Compd. of Syn. Ex. 17c]", "answer_label": 0}
{"compound": "O=C1Nc2cccc3c2C1(CCCCN1CCN(C2CCCc4ccccc42)CC1)CCC3 (stereo not drawn) [Compd. of Syn. Ex. 10d]", "answer_label": 0}
{"compound": "O=C1Nc2cccc3c2C1(CCCCN1CCN(C2CCCc4cnccc42)CC1)CCC3 (stereo not drawn) [Compd. of Syn. Ex. 37d]", "answer_label": 0}
{"compound": "CC(c1ccccc1)N1CCN(CCCCC23CCCc4cccc(c42)NC3=O)CC1 (stereo not drawn) [Compd. of Syn. Ex. 2e]", "answer_label": 1}
{"compound": "O=C1Nc2cccc3c2C1(CCCCN1CCc2c([nH]c4ccccc24)C1)CCC3 (stereo not drawn) [Compd. of Syn. Ex. 1a]", "answer_label": 1}
{"compound": "CN1C(=O)C2(CCCCN3CCc4ccccc4C3)CCCc3cccc1c32 (stereo not drawn) [Compd. of Syn. Ex. 14c]", "answer_label": 0}
